B1: KCNK9 (parent)
chain: DVPDLQSVCSCTCYRSQDYGGRSV

- Variants of: B1
- test.method.notes: protein stability index of a GFP-peptide fusion (GPS, HEK-293T) (PSI 1-6); higher = more stable;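 further: lentivirally expressed fusions sorted by FACS into six bins by GFP to DsRed ratio, PSI derived from sequencing read proportions per bin multiplied by bin number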
- study.conditions: c terminus: a fixed tail appended
measurement.name: protein stability index
Format: numeric value only, no unit, no commentary.

T12A: 1.78
D4P: 2.05
D18Y: 1.56
P3M: 2.11
R22P: 2.16
V24Y: 1.49
D4G: 1.45
G20T: 1.87

Look up protein stability index for this variant: G20V 1.2

I have this variant here, S23L , and I need its recorded protein stability index. 2.27

Please give the measured protein stability index for this variant: Y14N 2.23

I am curious: what protein stability index value has been reported for S16A ? 1.2

Please give the measured protein stability index for this variant: V8I 2

What measured protein stability index goes with R15H ? 2.68

// returns reported protein stability index for input R15T 2.2

Fill blank: measured protein stability index of the variant Q6W is ____. 2.57

# lookup: protein stability index of Y14K 2.27

For the variant D18H , what protein stability index is on record? 2.85

Entry under review: D18S . Reported protein stability index? 2.33

Quick one: protein stability index for L5I ? 2.54
